readout_name: melting point

Answer with the recorded melting point of CC(=O)N1CCN(C(C)=O)C1=Nc1ccc(Cl)cc1Cl only. 113 to 115 °C

Answer with the recorded melting point of O=C1C=CC(O)(c2nc3ccccc3o2)C=C1 only. 116 to 117 °C

Answer with the recorded melting point of C=CCCC(C#N)(C#N)Cc1ccc(OC(F)(F)C(F)F)cc1 only. 60.5 °C

Answer with the recorded melting point of O=C(O)c1cccc2c1CCCc1ccccc1-2 only. 137 to 139 °C

Answer with the recorded melting point of CCCCCCCNC(=O)Nc1ccc(CCc2cc(C(C)(C)C)c(O)c(C(C)(C)C)c2)cc1 only. 151 to 152 °C

Answer with the recorded melting point of O=C(OI(OC(=O)C(F)(F)F)C(F)(F)C(F)(F)C(F)(F)C(F)(F)C(F)(F)C(F)(F)C(F)(F)F)C(F)(F)F only. 68 to 70 °C

Answer with the recorded melting point of O=C1C2CC2C(=O)N1CCC1=CCCCC1 (configuration not stated) only. 60 to 61 °C

Answer with the recorded melting point of O=C1NC(=O)C(=Cc2ccc3c(c2)CN(c2ccccn2)CCO3)S1 only. 260 to 261 °C

Answer with the recorded melting point of Cc1cc(C)c(C[C@@H](C(=O)[C@H](Cc2c(C)cc(C)cc2C)N2C(=O)c3ccccc3C2=O)N2C(=O)c3ccccc3C2=O)c(C)c1 only. 142 to 143 °C

Answer with the recorded melting point of Cc1nc(C)n(-c2cc(C)c3[nH]c(=O)ccc3c2)c1Br only. 273 °C

Answer with the recorded melting point of CN(C(=O)c1ccc2nonc2c1)C1CCC1 only. 51 to 52 °C

Answer with the recorded melting point of CCCn1c(CCO)nc2c(N)nc3cc(OCCCNC(=O)c4cccnc4)ccc3c21 only. 184 °C

Answer with the recorded melting point of CCCCOc1cc(OC)ccc1C(=O)c1cccc(C(=O)O)c1 only. 112 to 115 °C

Answer with the recorded melting point of CN(C)c1ccc(NC(=O)N(Cc2ccco2)C[C@H]2CC[C@H](CN(Cc3ccco3)C(=O)Nc3ccc(N(C)C)cc3)CC2)cc1 only. 129 to 132 °C

Answer with the recorded melting point of CCCCOc1cc2ncnc(N3CCc4ccc(Cl)cc43)c2cc1OC only. 126 to 132 °C

Answer with the recorded melting point of CCC1(CCCBr)C(=O)NC(=O)NC1=O only. 138 to 140 °C

Answer with the recorded melting point of Cc1cc(-c2ccc(Cl)c(Cl)c2)nc(-n2cnc(-c3cccc(S(C)(=O)=O)c3)c2)n1 only. 213 °C
